Where do the numbers come from? From ChEMBL document CHEMBL1201862.

- ASSAYED_TARGET: RNA-binding protein pos-1 (Caenorhabditis elegans, UniProt G5EF15)
- Sequence (G5EF15 whole entry, the tested form may be a part): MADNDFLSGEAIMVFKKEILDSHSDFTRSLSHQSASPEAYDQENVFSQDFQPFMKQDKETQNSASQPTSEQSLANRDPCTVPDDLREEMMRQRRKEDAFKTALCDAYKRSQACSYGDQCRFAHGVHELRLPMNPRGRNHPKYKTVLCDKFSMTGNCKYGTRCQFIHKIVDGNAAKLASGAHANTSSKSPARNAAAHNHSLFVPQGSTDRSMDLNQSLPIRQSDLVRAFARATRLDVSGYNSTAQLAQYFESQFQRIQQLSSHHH
- TEST_DESCRIPTION: disruptors of C. elegans POS-1 RNA interaction – biochemical, fluorescence polarization, dose response (AID 1964);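 further: purified POS-1 fused to maltose binding protein made in E. coli; potency of compounds blocking POS-1 binding to fluorescent RNA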
Calls of active or inactive are those of the source. No stated cut-off is given here; in the data, actives have a measured EC50 and inactives only a lower limit.
Please go through the items and note down their EC50.

Enquiry: Fill in: EC50 of Cc1cc(/C=N/Nc2ccc([N+](=O)[O-])cn2)c(C)n1-c1ccc(C(=O)O)cc1 is ___
Return: > 300 µM (not active)

Enquiry: Fill in: EC50 of O=C(C1=NN(c2ccccc2)C2C(=O)N(c3ccccc3Cl)C(=O)C12)c1ccccc1 (stereo unspecified) is ___
Return: > 300 µM (not active)

Enquiry: Fill in: EC50 of Cc1ccc(Cl)c2c(C3=NC(=S)NC3=O)c(O)[nH]c12 is ___
Return: 14.3 µM (active)

Enquiry: Fill in: EC50 of C=CCn1cc(C=C2C(=O)NC(=O)NC2=O)c2ccccc21 is ___
Return: > 300 µM (not active)

Enquiry: Fill in: EC50 of COc1ccc2c(c1)C1C=CCC1C(c1cc3c(cc1Br)OCO3)N2 (stereo unspecified) is ___
Return: > 300 µM (not active)

Enquiry: Fill in: EC50 of CSC(=Nc1cccc(Cl)c1C)NS(=O)(=O)c1cccs1 is ___
Return: > 300 µM (not active)
